assay: in vivo; conditions: BALB/c nude, mouse, in vivo, iv, total radioactivity, % ID/g Blood
tissue uptake at 24 h for assorted molecules
Your answer is read as %ID/g, so omit the unit and give the number.

Please report the recorded tissue uptake at 24 h for C[C@@H](O)[C@H](NC(=O)[C@@H]1CSSC[C@H](NC(=O)[C@@H](Cc2ccccc2)NC(=O)[C@H](CCCCNC(=O)c2cccc(NC(=O)N[C@@H]3CN(C4CCCCC4)c4ccccc4N(CC(=O)C(C)(C)C)C3=O)c2)NC(=O)COCCOCCNC(=O)CN2CCN(CC(=O)O)CCN(CC(=O)O)CCN(CC(=O)O)CC2)C(=O)N[C@@H](Cc2ccc(O)cc2)C(=O)N[C@H](Cc2c[nH]c3ccccc23)C(=O)N[C@@H](CCCCN)C(=O)N[C@@H]([C@@H](C)O)C(=O)N1)C(=O)O [^177Lu-I-35, metal not drawn] . 0.11

The record that follows has no tissue uptake at 24 h shown yet.
Please report the recorded tissue uptake at 24 h for CCCC[C@H](NC(=O)[C@H](Cc1c[nH]c2ccccc12)NC(=O)CNC(=O)[C@H](Cc1ccc(O)cc1)NC(=O)[C@H](C)NC(=O)[C@@H](CCC(=O)O)NC(=O)[C@@H](CCC(=O)O)NC(=O)[C@@H](CCC(=O)O)NC(=O)[C@@H](CCC(=O)O)NC(=O)[C@@H](CCC(=O)O)NC(=O)[C@@H](CCC(=O)O)NC(=O)CN1CCN(CC(=O)O)CCN(CC(=O)O)CCN(CC(=O)O)CC1)C(=O)N[C@@H](CC(=O)O)C(=O)N[C@@H](Cc1ccccc1)C(N)=O [^177Lu-C-2, metal not drawn, reference compound] . 0.01

Measured values drawn from patent US20260248972A1 for this set.
